Assay target: DRB1*15:01
Experimental context: modification not given
Observable: pIC50
Give bare numbers, as −log10 of the molar value.

Looking for the measured pIC50 of STPCNGVEGFNCYFP [… (position 477)] , can you help?
5.17
